Recorded values, source patent US10308639B2.

- assay.system: PI3Kγ (Homo sapiens)
- Construct: made in house
- Sequence (P48736 whole entry): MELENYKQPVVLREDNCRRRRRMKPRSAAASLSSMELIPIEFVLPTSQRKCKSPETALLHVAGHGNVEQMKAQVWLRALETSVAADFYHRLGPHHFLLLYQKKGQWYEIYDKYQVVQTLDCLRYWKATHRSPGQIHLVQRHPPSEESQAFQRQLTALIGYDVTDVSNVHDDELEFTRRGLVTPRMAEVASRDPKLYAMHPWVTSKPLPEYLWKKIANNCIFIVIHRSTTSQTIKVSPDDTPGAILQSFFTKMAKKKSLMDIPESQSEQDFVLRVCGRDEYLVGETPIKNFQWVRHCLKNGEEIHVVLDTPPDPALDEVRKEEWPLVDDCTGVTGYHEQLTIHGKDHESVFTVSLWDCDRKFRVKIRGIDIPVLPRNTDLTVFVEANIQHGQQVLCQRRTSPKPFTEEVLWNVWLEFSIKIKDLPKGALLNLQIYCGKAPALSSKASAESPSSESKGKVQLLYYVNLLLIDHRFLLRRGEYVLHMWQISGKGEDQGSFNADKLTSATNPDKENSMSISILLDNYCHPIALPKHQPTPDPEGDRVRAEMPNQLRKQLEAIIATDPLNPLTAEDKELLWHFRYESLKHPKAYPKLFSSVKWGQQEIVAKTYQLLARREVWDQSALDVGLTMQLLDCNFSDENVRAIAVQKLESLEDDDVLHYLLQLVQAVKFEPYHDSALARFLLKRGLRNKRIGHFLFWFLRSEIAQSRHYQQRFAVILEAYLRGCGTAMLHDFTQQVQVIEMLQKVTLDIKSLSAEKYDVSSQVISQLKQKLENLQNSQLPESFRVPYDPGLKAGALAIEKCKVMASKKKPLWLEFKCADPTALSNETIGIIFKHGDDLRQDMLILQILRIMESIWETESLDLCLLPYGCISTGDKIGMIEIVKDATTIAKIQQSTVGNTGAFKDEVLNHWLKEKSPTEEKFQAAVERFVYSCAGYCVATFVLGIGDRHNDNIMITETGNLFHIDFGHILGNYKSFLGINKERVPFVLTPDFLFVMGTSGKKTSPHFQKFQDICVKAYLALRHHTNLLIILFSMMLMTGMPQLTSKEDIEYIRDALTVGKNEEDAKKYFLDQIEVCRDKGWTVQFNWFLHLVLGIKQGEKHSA
- assay.procedure: TR-FRET enzymatic activity assay, PI3Kγ
- Format: biochemical
- run.parameters: Table 2a; same assay; read-out: PI3Kγ IC50
assay.readout: pIC50
Here pIC50 is given on a logarithmic scale as minus log10 of the concentration in mol/L.

Short answer for N#Cc1c(N)nc(N)nc1N[C@H](c1nc2cc(F)cc(Cl)c2c(=O)n1-c1cc[nH]n1)C1CC1 [Compound 239] : pIC50 was 5.57

Form: compound = C[C@H](Nc1nc(N)nc(N)c1C#N)c1nc2cc(F)cc(Cl)c2c(=O)n1-c1cc[nH]n1 [Compound 237] ; pIC50 = 5.85

Record Nc1ncnc(N[C@H](c2nc3cccc(Cl)c3c(=O)n2-c2cc[nH]n2)C2CC2)c1Cl [Compound 165] . Reported pIC50: 5.38

Just so you know, measured pIC50 for Cc1c[nH]nc1-n1c([C@@H](Nc2nc(N)nc(Cl)c2C#N)C2CC2)nc2cccc(Cl)c2c1=O [Compound 243] came out at 5.51

Notebook: C[C@H](Nc1nc(N)nc(N)c1Cl)c1nc2cccc(C(F)(F)F)c2c(=O)n1-c1cn[nH]c1 [Compound 209] , pIC50 read as 5.74

Per the record, C[C@H](Nc1nc(N)nc(N)c1Cl)c1nc2c(F)cc(F)cc2c(=O)n1-c1cc[nH]n1 [Compound 161] has pIC50 of 5.36

response.value for N#Cc1c(N)nc(N)nc1N[C@H](c1nc2ccc(F)c(Cl)c2c(=O)n1-c1cc[nH]n1)C1CC1 [Compound 262] (field: pIC50) = 6.39

Form: compound = C[C@H](Nc1nc(N)nc(C(F)F)c1C#N)c1nc2cccc(C(F)F)c2c(=O)n1-c1cc[nH]n1 [Compound 176] ; pIC50 = 5.70

response.value for C[C@H](Nc1nc(N)nc(N)c1C#N)c1nc2c(C(F)F)cc(F)cc2c(=O)n1-c1cc[nH]n1 [Compound 140] (field: pIC50) = 5.22

Recorded result, C[C@H](Nc1nc(N)nc(C(F)F)c1C#N)c1nc2c(F)cc(F)cc2c(=O)n1-c1cc[nH]n1 [Compound 187] , pIC50: 5.64

// C[C@H](Nc1nc(N)nc(N)c1Cl)c1nc2ccc(F)c(Cl)c2c(=O)n1-c1cn[nH]c1 [Compound 263] : pIC50 value = 5.92

compound C[C@H](Nc1nc(N)nc(N)c1Cl)c1nc2c(Cl)cc(F)cc2c(=O)n1-c1cn[nH]c1 [Compound 265] , pIC50 observed: 5.51

For N#Cc1c(N)nc(N)nc1N[C@H](c1nc2c(F)cc(F)cc2c(=O)n1-c1cc[nH]n1)C1CC1 [Compound 170] the compound record lists pIC50 as 6.36

Quick note, pIC50 for C[C@H](Nc1nc(N)nc(N)c1C#N)c1nc2cccc(C(F)(F)F)c2c(=O)n1-c1cn[nH]c1 [Compound 206] landed at 6.92
